Entries annotated with measured Fold-change determined at compound concentration 33 μM
# Tested system: PAPD5 (Homo sapiens, UniProt Q8NDF8)
# Construct: made in house
# Sequence (Q8NDF8 68-698 isoform Q8NDF8-5): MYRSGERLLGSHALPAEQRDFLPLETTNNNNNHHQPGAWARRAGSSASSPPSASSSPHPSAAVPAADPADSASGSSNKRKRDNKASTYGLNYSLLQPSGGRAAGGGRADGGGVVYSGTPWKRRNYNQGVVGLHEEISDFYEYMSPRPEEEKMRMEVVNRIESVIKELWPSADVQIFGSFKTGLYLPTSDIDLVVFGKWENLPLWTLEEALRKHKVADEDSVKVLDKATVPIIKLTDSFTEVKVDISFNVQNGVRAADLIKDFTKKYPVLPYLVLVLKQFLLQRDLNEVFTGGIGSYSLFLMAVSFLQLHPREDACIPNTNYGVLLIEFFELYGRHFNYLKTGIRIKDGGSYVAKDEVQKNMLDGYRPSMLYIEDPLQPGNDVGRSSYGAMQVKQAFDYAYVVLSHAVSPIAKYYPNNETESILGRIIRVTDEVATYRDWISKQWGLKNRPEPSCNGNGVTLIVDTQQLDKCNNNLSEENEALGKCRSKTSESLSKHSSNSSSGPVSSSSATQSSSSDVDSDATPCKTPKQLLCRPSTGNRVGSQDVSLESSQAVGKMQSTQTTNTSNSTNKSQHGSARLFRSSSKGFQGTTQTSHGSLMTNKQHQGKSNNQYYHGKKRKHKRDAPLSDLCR
# Test description: High-throughput luminescence (KinaseGlo) RNA polyadenylation assay, ATP utilization by recombinant PAPD5
# Format: biochemical
# Condition notes: Table 4 (entries of Table 5); 33 μM compound; ratio of luminescence with inhibitor to DMSO

In plain terms, CC(C)Cn1c(=O)c2ccccc2n2c(=S)[nH]nc12 [Entry 73] has a documented Fold-change determined at compound concentration 33 μM of 1.093

----------
# Tested system: PAPD5 (Homo sapiens, UniProt Q8NDF8)
# Construct: made in house
# Test description: High-throughput luminescence (KinaseGlo) RNA polyadenylation assay, ATP utilization by recombinant PAPD5
# Format: biochemical
# Condition notes: Table 4 (entries of Table 5); 100 μM compound; ratio of luminescence with inhibitor to DMSO, higher = higher inhibition
Each item that follows carries a reported Fold-change determined at compound concentration 100 μM.
Lab note: write the figure by itself, no unit.

Consider the following illustrative entries.
{"Compound": "COc1ccc(C(=O)N2CCc3ccc(CNS(C)(=O)=O)cc32)cc1 [Entry 221]", "Tested system": "PAPD5 (Homo sapiens, UniProt Q8NDF8)", "Value measured": 1.585}
{"Compound": "Cc1cccc(C(=O)Nc2nc3nc(-c4ccccc4)cc(=O)n3[nH]2)c1 [Entry 151]", "Tested system": "PAPD5 (Homo sapiens, UniProt Q8NDF8)", "Value measured": 1.799}
{"Compound": "Cc1nn(-c2ccc(Cl)cc2)c2sc(C(=O)O)cc12 [Entry 204]", "Tested system": "PAPD5 (Homo sapiens, UniProt Q8NDF8)", "Value measured": 1.229}

Value (Fold-change determined at compound concentration 100 μM, PAPD5 (Homo sapiens, UniProt Q8NDF8)) for record Cc1ccc(-c2n[nH]c3nc(-c4ccc(O)c(O)c4)cc(C(=O)O)c23)cc1 [Entry 180] = 1.736

# Fold-change determined at compound concentration 100 μM measured on PAPD5 (Homo sapiens, UniProt Q8NDF8) for item COc1ccc(OC)c2sc(N(CCCN(C)C)C(=O)c3ccco3)nc12 [Entry 207] = 1.2

Fold-change determined at compound concentration 100 μM for PAPD5 (Homo sapiens, UniProt Q8NDF8) with input CC1=NCCc2c1[nH]c1ccccc21 [Entry 113, 1-Methyl-4,9-dihydro-3H-beta-carboline] equals 1.674

So the reported Fold-change determined at compound concentration 100 μM for COc1cccc(CNC2=Nc3ccccc3NC23CCCCC3)c1 [Entry 63] , on PAPD5 (Homo sapiens, UniProt Q8NDF8), turned out to be 1.417

Noted Fold-change determined at compound concentration 100 μM for Cc1ccc2c(c1)n(Cc1ccc(Cl)cc1)c(=O)c1nc(C(=O)O)nn12 [Entry 213] , tested on PAPD5 (Homo sapiens, UniProt Q8NDF8): 1.579

// assay PAPD5 (Homo sapiens, UniProt Q8NDF8), entry Cc1ccc(C)c(NC(=O)c2ccc3c(O)c(S(=O)(=O)c4ccc(Cl)cc4)c(O)nc3c2)c1 [Entry 96] , Fold-change determined at compound concentration 100 μM value = 1.23

Entry COc1ccc(-c2coc3c2c(C)cc2oc(=O)c(CC(=O)O)c(C)c23)cc1 [Entry 132] : Fold-change determined at compound concentration 100 μM on PAPD5 (Homo sapiens, UniProt Q8NDF8) = 1.774

PAPD5 (Homo sapiens, UniProt Q8NDF8) assay, compound CCCNC(=O)CSc1c2c(nc3ccc(Cl)cc13)CCCC2 [Entry 90] , recorded Fold-change determined at compound concentration 100 μM = 1.253

Response field Fold-change determined at compound concentration 100 μM (PAPD5 (Homo sapiens, UniProt Q8NDF8)) for item CCOC(=O)c1cccc(NS(=O)(=O)c2cc3[nH]c(=O)c(=O)[nH]c3cc2C)c1 [Entry 139] : 1.549
